Test system: HeLa Kyoto
Assay name: melting temperature (median over replicates), in situ; higher = more thermally stable
Conditions used: cell cycle stage: mitosis

Sequence chain | Test system | melting temperature (°C)
MDSFNYTTPDYGHYDDKDTLDLNTPVDKTSNTLRVPDILALVIFAVVFLVGVLGNALVVWVTAFEAKRTINAIWFLNLAVADFLSCLALPILFTSIVQHHHWPFGGAACSILPSLILLNMYASILLLATISADRFLLVFKPIWCQNFRGAGLAWIACAVAWGLALLLTIPSFLYRVVREEYFPPKVLCGVDYSHDKRRERAVAIVRLVLGFLWPLLTLTICYTFILLRTWSRRATRSTKTLKVVVAVVASFFIFWLPYQVTGIMMSFLEPSSPTFLLLKKLDSLCVSFAYINCCINPIIYVVAGQGFQGRLRKSLPSLLRNVLTEESVVRESKSFTRSTVDTMAQKTQAV [C5AR1] | HeLa Kyoto | 57.4
MAVRSLWAGRLRVQRLLAWSAAWESKGWPLPFSTATQRTAGEDCRSEDPPDELGPPLAERALRVKAVKLEKEVQDLTVRYQRAIADCENIRRRTQRCVEDAKIFGIQSFCKDLVEVADILEKTTECISEESEPEDQKLTLEKVFRGLLLLEAKLKSVFAKHGLEKLTPIGDKYDPHEHELICHVPAGVGVQPGTVALVRQDGYKLHGRTIRLARVEVAVESQRRL [GRPEL2] | HeLa Kyoto | 48.4
MSSASGLRRGHPAGGEENMTETDAFYKREMFDPAEKYKMDHRRRGIALIFNHERFFWHLTLPERRGTCADRDNLTRRFSDLGFEVKCFNDLKAEELLLKIHEVSTVSHADADCFVCVFLSHGEGNHIYAYDAKIEIQTLTGLFKGDKCHSLVGKPKIFIIQACRGNQHDVPVIPLDVVDNQTEKLDTNITEVDAASVYTLPAGADFLMCYSVAEGYYSHRETVNGSWYIQDLCEMLGKYGSSLEFTELLTLVNRKVSQRRVDFCKDPSAIGKKQVPCFASMLTKKLHFFPKSN [CASP6] | HeLa Kyoto | 56.6
MAATFFGEVVKAPCRAGTEDEEEEEEGRRETPEDREVRLQLARKREVRLLRRQTKTSLEVSLLEKYPCSKFIIAIGNNAVAFLSSFVMNSGVWEEVGCAKLWNEWCRTTDTTHLSSTEAFCVFYHLKSNPSVFLCQCSCYVAEDQQYQWLEKVFGSCPRKNMQITILTCRHVTDYKTSESTGSLPSPFLRALKTQNFKDSACCPLLEQPNIVHDLPAAVLSYCQVWKIPAILYLCYTDVMKLDLITVEAFKPILSTRSLKGLVKNIPQSTEILKKLMTTNEIQSNIYT [PSMG1] | HeLa Kyoto | 54.4
MSGCDAREGDCCSRRCGAQDKEHPRYLIPELCKQFYHLGWVTGTGGGISLKHGDEIYIAPSGVQKERIQPEDMFVCDINEKDISGPSPSKKLKKSQCTPLFMNAYTMRGAGAVIHTHSKAAVMATLLFPGREFKITHQEMIKGIKKCTSGGYYRYDDMLVVPIIENTPEEKDLKDRMAHAMNEYPDSCAVLVRRHGVYVWGETWEKAKTMCECYDYLFDIAVSMKKVGLDPSQLPVGENGIV [APIP] | HeLa Kyoto | 57.6

----------
Tested on: HeLa Kyoto
Assay name: solubility change mitosis vs G1/S (difference of NP-40 vs SDS log2 ratios) (log2 ratio difference); higher = more soluble in mitosis
Form field: solubility change mitosis (log2) (one value per entry).

Sequence chain | solubility change mitosis (log2)
MDMLDPGLDPAASATAAAAASHDKGPEAEEGVELQEGGDGPGAEEQTAVAITSVQQAAFGDHNIQYQFRTETNGGQVTYRVVQVTDGQLDGQGDTAGAVSVVSTAAFAGGQQAVTQVGVDGAAQRPGPAAASVPPGPAAPFPLAVIQNPFSNGGSPAAEAVSGEARFAYFPASSVGDTTAVSVQTTDQSLQAGGQFYVMMTPQDVLQTGTQRTIAPRTHPYSPKIDGTRTPRDERRRAQHNEVERRRRDKINNWIVQLSKIIPDCNADNSKTGASKGGILSKACDYIRELRQTNQRMQETFKEAERLQMDNELLRQQIEELKNENALLRAQLQQHNLEMVGEGTRQ [USF2] | 0.142
MAAAAAQGGGGGEPRRTEGVGPGVPGEVEMVKGQPFDVGPRYTQLQYIGEGAYGMVSSAYDHVRKTRVAIKKISPFEHQTYCQRTLREIQILLRFRHENVIGIRDILRASTLEAMRDVYIVQDLMETDLYKLLKSQQLSNDHICYFLYQILRGLKYIHSANVLHRDLKPSNLLINTTCDLKICDFGLARIADPEHDHTGFLTEYVATRWYRAPEIMLNSKGYTKSIDIWSVGCILAEMLSNRPIFPGKHYLDQLNHILGILGSPSQEDLNCIINMKARNYLQSLPSKTKVAWAKLFPKSDSKALDLLDRMLTFNPNKRITVEEALAHPYLEQYYDPTDEPVAEEPFTFAMELDDLPKERLKELIFQETARFQPGVLEAP [MAPK3] | -0.228
MELGSCLEGGREAAEEEGEPEVKKRRLLCVEFASVASCDAAVAQCFLAENDWEMERALNSYFEPPVEESALERRPETISEPKTYVDLTNEETTDSTTSKISPSEDTQQENGSMFSLITWNIDGLDLNNLSERARGVCSYLALYSPDVIFLQEVIPPYYSYLKKRSSNYEIITGHEEGYFTAIMLKKSRVKLKSQEIIPFPSTKMMRNLLCVHVNVSGNELCLMTSHLESTRGHAAERMNQLKMVLKKMQEAPESATVIFAGDTNLRDREVTRCGGLPNNIVDVWEFLGKPKHCQYTWDTQMNSNLGITAACKLRFDRIFFRAAAEEGHIIPRSLDLLGLEKLDCGRFPSDHWGLLCNLDIIL [TDP2] | -0.193
MPLELELCPGRWVGGQHPCFIIAEIGQNHQGDLDVAKRMIRMAKECGADCAKFQKSELEFKFNRKALERPYTSKHSWGKTYGEHKRHLEFSHDQYRELQRYAEEVGIFFTASGMDEMAVEFLHELNVPFFKVGSGDTNNFPYLEKTAKKGRPMVISSGMQSMDTMKQVYQIVKPLNPNFCFLQCTSAYPLQPEDVNLRVISEYQKLFPDIPIGYSGHETGIAISVAAVALGAKVLERHITLDKTWKGSDHSASLEPGELAELVRSVRLVERALGSPTKQLLPCEMACNEKLGKSVVAKVKIPEGTILTMDMLTVKVGEPKGYPPEDIFNLVGKKVLVTVEEDDTIMEELVDNHGKKIKS [NANS] | -0.108

----------
Test system: HeLa Kyoto
Assay name: thermal stability score vs G1/S (z-score of summed log2 fold changes over temperatures); higher = more thermally stable than in G1/S
Conditions used: cell cycle stage: mitosis
Observed property: thermal stability score

Sequence chain | Quantitative result
MTTQQIDLQGPGPWGFRLVGGKDFEQPLAISRVTPGSKAALANLCIGDVITAIDGENTSNMTHLEAQNRIKGCTDNLTLTVARSEHKVWSPLVTEEGKRHPYKMNLASEPQEVLHIGSAHNRSAMPFTASPASSTTARVITNQYNNPAGLYSSENISNFNNALESKTAASGVEANSRPLDHAQPPSSLVIDKESEVYKMLQEKQELNEPPKQSTSFLVLQEILESEEKGDPNKPSGFRSVKAPVTKVAASIGNAQKLPMCDKCGTGIVGVFVKLRDRHRHPECYVCTDCGTNLKQKGHFFVEDQIYCEKHARERVTPPEGYEVVTVFPK [PDLIM1] | -0.369
MSEDLAKQLASYKAQLQQVEAALSGNGENEDLLKLKKDLQEVIELTKDLLSTQPSETLASSDSFASTQPTHSWKVGDKCMAVWSEDGQCYEAEIEEIDEENGTAAITFAGYGNAEVTPLLNLKPVEEGRKAKEDSGNKPMSKKEMIAQQREYKKKKALKKAQRIKELEQEREDQKVKWQQFNNRAYSKNKKGQVKRSIFASPESVTGKVGVGTCGIADKPMTQYQDTSKYNVRHLMPQ [SMNDC1] | -6.93
MAAFAVEPQGPALGSEPMMLGSPTSPKPGVNAQFLPGFLMGDLPAPVTPQPRSISGPSVGVMEMRSPLLAGGSPPQPVVPAHKDKSGAPPVRSIYDDISSPGLGSTPLTSRRQPNISVMQSPLVGVTSTPGTGQSMFSPASIGQPRKTTLSPAQLDPFYTQGDSLTSEDHLDDSWVTVFGFPQASASYILLQFAQYGNILKHVMSNTGNWMHIRYQSKLQARKALSKDGRIFGESIMIGVKPCIDKSVMESSDRCALSSPSLAFTPPIKTLGTPTQPGSTPRISTMRPLATAYKASTSDYQVISDRQTPKKDESLVSKAMEYMFGW [NUP35] | -0.679

----------
Form field: thermal stability score (one value per entry).
Tested on: HeLa Kyoto
Assay name: thermal stability score vs G1/S (z-score of summed log2 fold changes over temperatures); higher = more thermally stable than in G1/S
Conditions used: cell cycle stage: early G1 (4.5 h after nocodazole release)
Observed property: thermal stability score

Substance | Quantitative result
MEPAVSEPMRDQVARTHLTEDTPKVNADIEKVNQNQAKRCTVIGGSGFLGQHMVEQLLARGYAVNVFDIQQGFDNPQVRFFLGDLCSRQDLYPALKGVNTVFHCASPPPSSNNKELFYRVNYIGTKNVIETCKEAGVQKLILTSSASVIFEGVDIKNGTEDLPYAMKPIDYYTETKILQERAVLGANDPEKNFLTTAIRPHGIFGPRDPQLVPILIEAARNGKMKFVIGNGKNLVDFTFVENVVHGHILAAEQLSRDSTLGGKAFHITNDEPIPFWTFLSRILTGLNYEAPKYHIPYWVAYYLALLLSLLVMVISPVIQLQPTFTPMRVALAGTFHYYSCERAKKAMGYQPLVTMDDAMERTVQSFRHLRRVK [NSDHL] | 1.89
MPGRAPLRTVPGALGAWLLGGLWAWTLCGLCSLGAVGAPRPCQAPQQWEGRQVMYQQSSGRNSRALLSYDGLNQRVRVLDERKALIPCKRLFEYILLYKDGVMFQIDQATKQCSKMTLTQPWDPLDIPQNSTFEDQYSIGGPQEQITVQEWSDRKSARSYETWIGIYTVKDCYPVQETFTINYSVILSTRFFDIQLGIKDPSVFTPPSTCQMAQLEKMSEDCSW [EPDR1] | -1.3
CASKIN2 | 0.8
MEESGYESVLCVKPDVHVYRIPPRATNRGYRAAEWQLDQPSWSGRLRITAKGQMAYIKLEDRTSGELFAQAPVDQFPGTAVESVTDSSRYFVIRIEDGNGRRAFIGIGFGDRGDAFDFNVALQDHFKWVKQQCEFAKQAQNPDQGPKLDLGFKEGQTIKLNIANMKKKEGAAGNPRVRPASTGGLSLLPPPPGGKTSTLIPPPGEQLAVGGSLVQPAVAPSSGGAPVPWPQPNPATADIWGDFTKSTGSTSSQTQPGTGWVQF [NECAP2] | -0.264
MEATTAGVGRLEEEALRRKERLKALREKTGRKDKEDGEPKTKHLREEEEEGEKHRELRLRNYVPEDEDLKKRRVPQAKPVAVEEKVKEQLEAAKPEPVIEEVDLANLAPRKPDWDLKRDVAKKLEKLKKRTQRAIAELIRERLKGQEDSLASAVDAATEQKTCDSD [CCDC12] | -1.88
MNGRVDYLVTEEEINLTRGPSGLGFNIVGGTDQQYVSNDSGIYVSRIKENGAAALDGRLQEGDKILSVNGQDLKNLLHQDAVDLFRNAGYAVSLRVQHRLQVQNGPIGHRGEGDPSGIPIFMVLVPVFALTMVAAWAFMRYRQQL [SYNJ2BP] | 1.82
MARMNRPAPVEVTYKNMRFLITHNPTNATLNKFIEELKKYGVTTIVRVCEATYDTTLVEKEGIHVLDWPFDDGAPPSNQIVDDWLSLVKIKFREEPGCCIAVHCVAGLGRAPVLVALALIEGGMKYEDAVQFIRQKRRGAFNSKQLLYLEKYRPKMRLRFKDSNGHRNNCCIQ [PTP4A1] | 0.98
